assayedSystem: Nanoluciferase-BRD9 fusion protein (3×FLAG-NLuc-BRD9) in SYO-1 cells (Homo sapiens (Human), UniProt Q9H8M2)
Sequence (Q9H8M2 whole entry, the tested form may be a part): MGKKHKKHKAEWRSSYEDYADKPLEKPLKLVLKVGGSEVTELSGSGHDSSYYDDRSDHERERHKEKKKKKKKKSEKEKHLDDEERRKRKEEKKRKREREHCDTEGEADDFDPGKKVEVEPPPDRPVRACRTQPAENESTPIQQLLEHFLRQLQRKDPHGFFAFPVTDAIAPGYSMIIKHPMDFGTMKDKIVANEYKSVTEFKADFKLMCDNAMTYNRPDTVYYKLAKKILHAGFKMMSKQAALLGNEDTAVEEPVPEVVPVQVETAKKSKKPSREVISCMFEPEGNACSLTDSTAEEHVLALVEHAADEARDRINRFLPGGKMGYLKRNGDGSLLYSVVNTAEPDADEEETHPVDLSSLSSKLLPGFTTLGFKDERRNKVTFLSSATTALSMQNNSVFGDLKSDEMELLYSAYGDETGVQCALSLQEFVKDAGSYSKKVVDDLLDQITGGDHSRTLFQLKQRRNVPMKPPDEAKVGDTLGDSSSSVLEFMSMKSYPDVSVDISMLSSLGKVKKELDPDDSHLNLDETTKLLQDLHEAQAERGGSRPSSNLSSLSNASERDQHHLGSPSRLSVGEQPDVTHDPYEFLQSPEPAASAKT
experimentSummary: SYO1 BRD9 NanoLuc degradation assay
Type: cell-based
recordedConditions: SYO-1 cells expressing 3×FLAG-NLuc-BRD9, 6 hours incubation, top dose 1 μM
pIC50: −log10 of the molar value.
measurementLabel: pIC50

[2H]C([2H])([2H])n1cc(-c2cc(OC)c(CN3CCC(CN4CCC5(CC4)CC(Oc4ccc6c(c4)C(=O)N(C4CCC(=O)NC4=O)C6=O)C5)CC3)c(OC)c2)c2c(c1=O)CN(C(=O)NC)CC2 (centres unmarked) :: > 8.00
CNC(=O)N1CCc2c(-c3cc(OC)c(CN4CCC5(CCC(N6Cc7cc8c(cc7C6)C(=O)N(C6CCC(=O)NC6=O)C8=O)CC5)CC4)c(OC)c3)cn(C)c(=O)c2C1 (centres unmarked) :: > 8.00
CNC(=O)N1CCc2c(-c3cc(OC)c(CN4CCC(C5(CN6CCN(c7ccc8c(c7)C(=O)N(C7CCC(=O)NC7=O)C8=O)CC6)CC5)CC4)c(OC)c3)cn(C)c(=O)c2C1 (centres unmarked) :: > 8.00
CNC(=O)N1CCc2c(-c3cc(OC)c(CN4CCC5(CC4)CC(N4CCN(c6ccc7c(c6)C(=O)N(C6CCC(=O)NC6=O)C7=O)CC4)C5)c(OC)c3)cn(C)c(=O)c2C1 (centres unmarked) :: > 8.00
COc1cc(-c2cn(C)c(=O)c3c2CCN(C(=O)NCCCN2CCC(OCC4CCN(c5ccc6c(c5)C(=O)N(C5CCC(=O)NC5=O)C6=O)CC4)C2)C3)cc(OC)c1CN(C)C (centres unmarked) :: 7.00 to 8.00
